# experiment: Elimination half life in Beagle dog at 1 mg/kg, iv and 4 mg/kg, po
# experimental_parameters: in vivo, read-out: beta t1/2 (converted)
measured_property: half-life (h)

>>> result_value("O=C(O)c1ccc(C2(NC(=O)c3cccc4ccn(Cc5ccc(C(F)(F)F)cc5)c34)CC2)cc1")
2.6

---

# experiment: Bioavailability in Sprague-Dawley rat at 5 mg/kg, iv and 20 mg/kg, po
# Type: ADME, organism-based
# experimental_parameters: in vivo
measured_property: bioavailability (%)

>>> result_value("O=C(O)c1ccc(C2(NC(=O)c3cccc4ccn(Cc5ccc(C(F)(F)F)cc5)c34)CC2)cc1")
86
